target system: T1, Hera/Hera_1-419 heterodimer (Thermus thermophilus, UniProt O07897;O07897 1-510;1-419)
T1 sequence 1: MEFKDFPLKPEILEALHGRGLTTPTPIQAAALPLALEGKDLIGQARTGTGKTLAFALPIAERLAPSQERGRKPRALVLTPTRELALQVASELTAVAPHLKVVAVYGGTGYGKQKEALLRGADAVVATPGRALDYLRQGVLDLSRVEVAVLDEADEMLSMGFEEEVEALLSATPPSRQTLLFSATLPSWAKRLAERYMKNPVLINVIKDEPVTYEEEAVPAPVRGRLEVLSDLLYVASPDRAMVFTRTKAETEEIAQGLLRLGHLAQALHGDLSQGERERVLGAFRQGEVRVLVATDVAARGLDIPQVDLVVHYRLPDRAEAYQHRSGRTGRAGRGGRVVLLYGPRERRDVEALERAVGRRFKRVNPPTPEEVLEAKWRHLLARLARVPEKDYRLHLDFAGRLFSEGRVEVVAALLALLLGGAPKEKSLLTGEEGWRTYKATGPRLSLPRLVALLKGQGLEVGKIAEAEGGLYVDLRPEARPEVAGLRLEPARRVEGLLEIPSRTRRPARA
T1 sequence 2: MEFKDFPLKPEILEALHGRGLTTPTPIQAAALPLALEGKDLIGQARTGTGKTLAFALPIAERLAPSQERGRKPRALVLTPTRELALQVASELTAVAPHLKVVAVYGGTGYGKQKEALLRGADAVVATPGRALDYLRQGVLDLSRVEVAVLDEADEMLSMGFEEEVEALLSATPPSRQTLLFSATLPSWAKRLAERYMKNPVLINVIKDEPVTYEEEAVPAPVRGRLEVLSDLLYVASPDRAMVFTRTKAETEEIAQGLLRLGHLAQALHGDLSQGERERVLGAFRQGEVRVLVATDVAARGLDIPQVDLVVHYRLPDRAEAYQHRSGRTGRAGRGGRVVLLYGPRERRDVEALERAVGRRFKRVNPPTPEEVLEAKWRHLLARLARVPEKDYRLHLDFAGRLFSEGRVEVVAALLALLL
assay remarks: fluorescence anisotropy
property measured: pKd
Give bare numbers, as −log10 of the molar value.

Which value of pKd has been reported for fl-32/9mer (structured_RNA) RNA 1: GCAGGUCCCAAGGGUUGGGCUGUUCGCCCAUU RNA 2: UUGGGACCU in the records? 5.52
